Cited source for all entries: ChEMBL document CHEMBL1926565

// values below are reported residual activity
Target: Telomerase reverse transcriptase (Homo sapiens)
Test: Residual activity of human TERT in H1299 cells at 10 uM after 24 hrs by SEAP reporter gene assay
Unit % implied. Number only.

Below, each entry is followed by its recorded residual activity result.
1) O=C(CCl)Nc1ccc2c(c1NC(=O)CCCCl)C(=O)c1ccccc1C2=O: 97
2) O=C(CCl)Nc1ccc2c(c1NC(=O)c1ccccc1)C(=O)c1ccccc1C2=O: 94
3) Cc1ccc(C(=O)Nc2c(NC(=O)CN3CCSCC3)ccc3c2C(=O)c2ccccc2C3=O)cc1: 72
4) O=C(CCl)Nc1ccc2c(c1NC(=O)c1ccccc1C(F)(F)F)C(=O)c1ccccc1C2=O: 4
5) O=C(CCl)Nc1ccc2c(c1NC(=O)c1cccc(Cl)c1)C(=O)c1ccccc1C2=O: 6
6) O=C(CCl)Nc1ccc2c(c1NC(=O)c1ccc(Cl)cc1)C(=O)c1ccccc1C2=O: 6
7) O=C(CCl)Nc1ccc2c(c1NC(=O)c1cccs1)C(=O)c1ccccc1C2=O: 3
8) O=C(CCl)Nc1ccc2c(c1NC(=O)c1ccccc1F)C(=O)c1ccccc1C2=O: 5
9) Cc1cc(C(=O)Nc2c(NC(=O)CCl)ccc3c2C(=O)c2ccccc2C3=O)c(C)o1: 2
10) O=C(CCl)Nc1ccc2c(c1NC(=O)CCl)C(=O)c1ccccc1C2=O: 13

INPUT: Specify reported residual activity for the compound shown: Cc1ccc(C(=O)Nc2c(NC(=O)CN3CCN(c4ccccn4)CC3)ccc3c2C(=O)c2ccccc2C3=O)cc1
OUTPUT: 64

INPUT: Specify reported residual activity for the compound shown: O=C(CCl)Nc1ccc2c(c1NC(=O)c1cccc(F)c1)C(=O)c1ccccc1C2=O
OUTPUT: 1
